Experiment: in vitro
Conditions: human, hela cells, % viability
PROPERTY_NAME: viability at 28.5 h, 10 µM (%)
Please give a number only; it is taken to be in %.

A selection of reference data follows.
[[record]]
compound = "CCn1nc(C)c(-c2cncn2Cc2ccccc2CN(C)C)c1C"
measure_unit = "%"
reported_measurement = 88.1

[[record]]
compound = "CC(=O)Nc1cccc(-c2cnc3[nH]c(=O)n([C@@H](C)c4ccccc4)c3n2)c1"
measure_unit = "%"
reported_measurement = 98.2

[[record]]
compound = "O=C(O)c1cccc2c3c([nH]c12)CCCCC3"
measure_unit = "%"
reported_measurement = 85

[[record]]
compound = "Nc1ccn([C@H]2C[C@@H](O)[C@@H](CO)O2)c(=O)n1"
measure_unit = "%"
reported_measurement = 96.2

[[record]]
compound = "COC(=O)c1csc2c1NC1(CCC1)[C@@H]1C[C@@H](O)[C@@H](O)[C@H]21"
measure_unit = "%"
reported_measurement = 119

[[record]]
compound = "CCOC(=O)c1c(NC(=O)NCc2cccnc2)sc2c1CCC2"
measure_unit = "%"
reported_measurement = 87.3


viability at 28.5 h, 10 µM reading for CCOC(=O)c1[nH]c2ccccc2c1NC(=O)c1ccc(Br)cc1Cl : 91.3

The compound identified as Cc1ccc(N2C(=O)c3ccccc3C2Nc2ccccc2)nc1 (stereo not drawn) registered its viability at 28.5 h, 10 µM at 101

Given item O=C(O)C1(Oc2ccc3ncccc3c2)CCN(Cc2ccoc2)CC1 , the value recorded as its viability at 28.5 h, 10 µM is 90.9

// data source = paper PMC12040169
